tested on: SW-620 colon; experiment: NCI tumour cell line growth inhibition, 48 h; in the data active = GI50 below about 0.43 µM; inactive = the rest
Write down one outcome, taken from active, inactive

Worked cases, answers included:
STRUCTURE SMILES	TARGET SYSTEM	ANSWER LABEL
Cc1ccc(CN2CCC(C(=O)Nc3ccc(-c4cc5ccccc5[nH]4)cc3)CC2)o1	SW-620 colon	inactive
OCCN(CCO)c1ncnc2c1ncn2Cc1ccc(CCl)cc1	SW-620 colon	inactive
Cc1nc2sccn2c1-c1csc(Nc2ccccc2Cl)n1	SW-620 colon	inactive
O=C(Nc1ccc(-n2ccc3c(NC(=O)c4ccccc4)nccc32)cc1)c1ccc(Cl)c(C(F)(F)F)c1	SW-620 colon	active

QUERY: // return assay outcome for `CCC(=O)[C@H](C)[C@@H](OC(=O)[C@H](C)CC)[C@H](C)[C@H]1OC(CC)=C(C)C(=O)[C@@H]1C`
RESULT: inactive
